Recorded measurements of fold induction at 50 µM, one per entry
- Tested on: E. coli
- ASSAY_PROTOCOL: AK assay 384-well format, Prestwick library screening
- Type: cell-based, Escherichia coli
- TEST_CONDITIONS: Escherichia coli, 3 h; 50 μM final drug concentration; 384-well format; cutoff for positive-scoring molecules 3-fold increase; read-out: AK-based Prestwick Library Screening Results, E. coli (increase in extracellular AK activity)
Counter-ions that a name gives are not always drawn.

{"MOLECULE": "NCc1ccc(S(N)(=O)=O)cc1 [Mafenide hydrochloride]", "fold induction at 50 µM": 0.6}
{"MOLECULE": "CCCc1ncc(C[n+]2ccccc2C)c(N)n1 [Amprolium hydrochloride]", "fold induction at 50 µM": 0.5}
{"MOLECULE": "NC(=O)NC1NC(=O)NC1=O (stereo not drawn) [Allantoin]", "fold induction at 50 µM": 0.4}
{"MOLECULE": "CCN(CC)CCOC(=O)c1ccc(N)cc1 [Procaine hydrochloride]", "fold induction at 50 µM": 1.2}
{"MOLECULE": "COc1ccc(C(=O)NCc2cccnc2)cc1C(=O)NCc1cccnc1 [Picotamide monohydrate]", "fold induction at 50 µM": 0.9}
{"MOLECULE": "c1ccc(CN(CC2=NCCN2)c2ccccc2)cc1 [Antazoline hydrochloride]", "fold induction at 50 µM": 0.7}
{"MOLECULE": "NC(N)=Nc1nc(CSCCC(N)=NS(N)(=O)=O)cs1 [Famotidine]", "fold induction at 50 µM": 0.9}
{"MOLECULE": "CN(C)C(=N)N=C(N)N [Metformin hydrochloride]", "fold induction at 50 µM": 0.5}
{"MOLECULE": "C[C@H]1[C@H](NC(=O)/C(=N\\OC(C)(C)C(=O)O)c2csc(N)n2)C(=O)N1S(=O)(=O)O [Aztreonam]", "fold induction at 50 µM": 15.9}
{"MOLECULE": "Cc1cc(NC(=O)C2=C(O)c3ccccc3S(=O)(=O)N2C)no1 [Isoxicam]", "fold induction at 50 µM": 1.2}
{"MOLECULE": "CCCCNc1ccc(C(=O)OCCOCCOCCOCCOCCOCCOCCOCCOCCOC)cc1 [Benzonatate]", "fold induction at 50 µM": 0.7}
{"MOLECULE": "CC(NCCC(c1ccccc1)c1ccccc1)c1ccccc1 (stereo not drawn) [Fendiline hydrochloride]", "fold induction at 50 µM": 1}
{"MOLECULE": "Nc1ccc(S(=O)(=O)Nc2ncccn2)cc1 [Sulfadiazine]", "fold induction at 50 µM": 1}
{"MOLECULE": "CS(=O)(=O)c1ccc([C@@H](O)[C@@H](CO)NC(=O)C(Cl)Cl)cc1 [Thiamphenicol]", "fold induction at 50 µM": 0.9}
{"MOLECULE": "COc1ccc(CC2c3cc(OC)c(OC)cc3CC[N+]2(C)CCC(=O)OCCCCCOC(=O)CC[N+]2(C)CCc3cc(OC)c(OC)cc3C2Cc2ccc(OC)c(OC)c2)cc1OC (stereo not drawn) [Atracurium besylate]", "fold induction at 50 µM": 0.5}
{"MOLECULE": "N[C@@H](Cc1ccc(O)c(O)c1)C(=O)O [Levodopa]", "fold induction at 50 µM": 0.6}
{"MOLECULE": "OC(CCCN1CCCCC1)(c1ccccc1)c1ccccc1 [Diphenidol hydrochloride]", "fold induction at 50 µM": 0.8}
{"MOLECULE": "C[C@]12C=CC(=O)C=C1CC[C@@H]1[C@@H]2[C@@H](O)C[C@@]2(C)[C@H]1CC[C@]2(O)C(=O)CO [Prednisolone]", "fold induction at 50 µM": 1}
{"MOLECULE": "CC(=O)OCC(=O)[C@@]1(O)CC[C@H]2[C@@H]3CCC4=CC(=O)C=C[C@]4(C)[C@@]3(F)[C@@H](O)C[C@@]21C [Isoflupredone acetate]", "fold induction at 50 µM": 0.5}
{"MOLECULE": "C[C@H](CCC(=O)O)[C@H]1CC[C@H]2[C@@H]3C(=O)C[C@@H]4CC(=O)CC[C@]4(C)[C@H]3CC(=O)[C@]12C [Dehydrocholic acid]", "fold induction at 50 µM": 1.3}
{"MOLECULE": "CN1CCN2c3ccccc3Cc3ccccc3C2C1 (stereo not drawn) [Mianserine hydrochloride]", "fold induction at 50 µM": 0.7}
{"MOLECULE": "Clc1ccc(C(Cn2ccnc2)OCc2c(Cl)cccc2Cl)c(Cl)c1 (stereo not drawn) [Isoconazole]", "fold induction at 50 µM": 1.8}
{"MOLECULE": "CN1CCc2cc3c(cc2C1O)OCO3 (stereo not drawn) [Hydrastinine hydrochloride]", "fold induction at 50 µM": 1}
{"MOLECULE": "CC(C)OC(=O)C(C)(C)Oc1ccc(C(=O)c2ccc(Cl)cc2)cc1 [Fenofibrate]", "fold induction at 50 µM": 0.8}
{"MOLECULE": "COc1ccc2cc([C@H](C)C(=O)O)ccc2c1 [Naproxen]", "fold induction at 50 µM": 1.2}
{"MOLECULE": "O=C1CN(/N=C/c2ccc([N+](=O)[O-])o2)C(=O)N1 [Nitrofurantoin]", "fold induction at 50 µM": 0.4}
{"MOLECULE": "C[C@H]1[C@H](C)CC[C@]2(C(=O)O)CC[C@]3(C)C(=CC[C@@H]4[C@@]5(C)CC[C@H](O)C(C)(C)[C@@H]5CC[C@]43C)[C@H]12 [Ursolic acid]", "fold induction at 50 µM": 0.4}
{"MOLECULE": "Cn1c(=O)c2c(ncn2CC(O)CO)n(C)c1=O (stereo not drawn) [Diprophylline]", "fold induction at 50 µM": 1}
{"MOLECULE": "COc1ccc([C@@H]2CC(=O)c3c(O)cc(O)cc3O2)cc1O [Hesperetin]", "fold induction at 50 µM": 1.1}
{"MOLECULE": "Nc1nc(N)c2nc(-c3ccccc3)c(N)nc2n1 [Triamterene]", "fold induction at 50 µM": 0.6}
{"MOLECULE": "[H]/N=C(/N)N/C(=N/[H])NCCc1ccccc1 [Phenformin hydrochloride]", "fold induction at 50 µM": 0.8}
{"MOLECULE": "CC(=O)Nc1nnc(S(N)(=O)=O)s1 [Acetazolamide]", "fold induction at 50 µM": 0.4}
{"MOLECULE": "Cc1cc(=O)n(-c2ccccc2)n1C [Antipyrine]", "fold induction at 50 µM": 0.9}
{"MOLECULE": "O=C(O)COC(=O)Cc1ccccc1Nc1c(Cl)cccc1Cl [Aceclofenac]", "fold induction at 50 µM": 0.7}
{"MOLECULE": "NNC(=O)c1ccncc1 [Isoniazid]", "fold induction at 50 µM": 0.6}
{"MOLECULE": "C[C@H](CS)C(=O)N1CCC[C@H]1C(=O)O [Captopril]", "fold induction at 50 µM": 0.7}
